Numbers sourced from paper PMC4497409.

B1: Biotinylated human Norrin wild-type (pHL-Avitag3 construct) [modified: biotin on the C-terminal BirA recognition sequence (in vivo biotinylation); biotin on the C-terminal BirA recognition sequence (in vivo … (parent)
chain 1: KTDSSFIMDSDPRRCMRHHYVDSISHPLYKCSSKMVLLARCEGHCSQASRSEPLVSFSTVLKQPFRSSCHCCRPQTSKLKALRLRCSGGMRLTATYRYILSCHCEECNS
chain 2: ERRCDPIRISMCQNLGYNVTKMPNLVGHELQTDAELQLTTFTPLIQYGCSSQLQFFLCSVYVPMCTEKINIPIGPCGGMCLSVKRRCEPVLKEFGFAWPESLNCSKFPPQNDHNHMCMEGPGDEEVPLPHKTPIQPGE

# Variants of: B1
# assayName: SPR
# condition: with Frizzled4 cysteine-rich domain (Fz4CRD), Norrin mutant immobilized on CM5 chip, Surface: 435 RU, Fz4CRD as analyte, 1:1 Langmuir binding model
propertyMeasured: Kd (nM)
Respond with the bare value in nM.

**Query** # query: Kd of entry chain 1 M90N L92S
**Result** 1060
